Overview of reported relative viability across a group of compounds:
Test system: NCI-H2126
Test: relative viability (nuclei count vs DMSO), 5 days (fraction); higher = more cells survive
Settings: first compound 0.005 µM
Recorded Metric: relative viability

1) COc1cc2nccc(Oc3ccc(NC(=O)Nc4cc(C)on4)c(Cl)c3)c2cc1OC [Tivozanib] + C[C@@H](Oc1cc(-c2cnn(C3CCNCC3)c2)cnc1N)c1c(Cl)ccc(F)c1Cl [Crizotinib] (partner 1 µM): 0.965
2) Nc1ccn([C@@H]2O[C@H](CO)[C@@H](O)[C@@H]2O)c(=O)n1 [Cytarabine] + CCNC(=O)c1noc(-c2cc(C(C)C)c(O)cc2O)c1-c1ccc(CN2CCOCC2)cc1 [Luminespib] (partner 0.01 µM): 0.789

* * *

Recorded relative viability for the following compounds
Tested on: NCI-H650
Test: relative viability (nuclei count vs DMSO), 5 days (fraction); higher = more cells survive
Details: first compound 0.01581 µM
Recorded Metric: relative viability

1) Nc1ccn([C@@H]2O[C@H](CO)[C@@H](O)[C@@H]2O)c(=O)n1 [Cytarabine] + COc1cc2c(Oc3ccc(NC(=O)C4(C(=O)Nc5ccc(F)cc5)CC4)cc3F)ccnc2cc1OCCCN1CCOCC1 [Foretinib] (partner 0.25 µM): 0.642
2) Nc1ccn([C@@H]2O[C@H](CO)[C@@H](O)[C@@H]2O)c(=O)n1 [Cytarabine] + Nc1ncn([C@H]2C[C@H](O)[C@@H](CO)O2)c(=O)n1 [Decitabine] (partner 2 µM): 0.255
3) Nc1ccn([C@@H]2O[C@H](CO)[C@@H](O)[C@@H]2O)c(=O)n1 [Cytarabine] + CC(=O)c1c(C)c2cnc(Nc3ccc(N4CCNCC4)cn3)nc2n(C2CCCC2)c1=O [Palbociclib] (partner 0.5 µM): 0.227

* * *

compounds and their reported relative viability
Tested on: ABC-1
Test: relative viability (nuclei count vs DMSO), 5 days (fraction); higher = more cells survive
Settings: first compound 8 µM
Recorded Metric: relative viability

1. O=c1[nH]c2ccccc2n1C1CCN(CCCC(c2ccc(F)cc2)c2ccc(F)cc2)CC1 [Pimozide] + C[C@@H](Oc1cc(-c2cnn(C3CCNCC3)c2)cnc1N)c1c(Cl)ccc(F)c1Cl [Crizotinib] (partner 1 µM): 0.606
2. O=c1[nH]c2ccccc2n1C1CCN(CCCC(c2ccc(F)cc2)c2ccc(F)cc2)CC1 [Pimozide] + COc1cccc2cc(-c3nc([C@H]4CC[C@H](C(=O)O)CC4)n4ncnc(N)c34)[nH]c12 [OSI-027] (partner 0.5 µM): 0.354
3. O=c1[nH]c2ccccc2n1C1CCN(CCCC(c2ccc(F)cc2)c2ccc(F)cc2)CC1 [Pimozide] + Cc1cc(Nc2cc(N3CCN(C)CC3)nc(Sc3ccc(NC(=O)C4CC4)cc3)n2)n[nH]1 [Tozasertib] (partner 0.1 µM): 0.203
4. O=c1[nH]c2ccccc2n1C1CCN(CCCC(c2ccc(F)cc2)c2ccc(F)cc2)CC1 [Pimozide] + CS(=O)(=O)CCNCc1ccc(-c2ccc3ncnc(Nc4ccc(OCc5cccc(F)c5)c(Cl)c4)c3c2)o1 [Lapatinib] (partner 2 µM): 1.22
5. O=c1[nH]c2ccccc2n1C1CCN(CCCC(c2ccc(F)cc2)c2ccc(F)cc2)CC1 [Pimozide] + O=C(CCCCCCC(=O)Nc1ccccc1)NO [Vorinostat] (partner 1 µM): 0.719

* * *

Tested on: EPLC-272H
Test: relative viability (nuclei count vs DMSO), 5 days (fraction); higher = more cells survive
Conditions: first compound 0.000632 µM
Item-by-item account of relative viability
Recorded Metric: relative viability

1) CC(=O)O[C@@]12CO[C@@H]1C[C@H](O)[C@@]1(C)C(=O)[C@H](O)C3=C(C)[C@@H](OC(=O)[C@H](O)[C@@H](NC(=O)OC(C)(C)C)c4ccccc4)C[C@@](O)([C@@H](OC(=O)c4ccccc4)[C@H]21)C3(C)C [Docetaxel] + CCNC(=O)c1noc(-c2cc(C(C)C)c(O)cc2O)c1-c1ccc(CN2CCOCC2)cc1 [Luminespib] (partner 0.01 µM): 0.316
2) CC(=O)O[C@@]12CO[C@@H]1C[C@H](O)[C@@]1(C)C(=O)[C@H](O)C3=C(C)[C@@H](OC(=O)[C@H](O)[C@@H](NC(=O)OC(C)(C)C)c4ccccc4)C[C@@](O)([C@@H](OC(=O)c4ccccc4)[C@H]21)C3(C)C [Docetaxel] + Cc1nc(NC(=O)N2CCC[C@H]2C(N)=O)sc1-c1ccnc(C(C)(C)C(F)(F)F)c1 [Alpelisib] (partner 2 µM): 0.741
3) CC(=O)O[C@@]12CO[C@@H]1C[C@H](O)[C@@]1(C)C(=O)[C@H](O)C3=C(C)[C@@H](OC(=O)[C@H](O)[C@@H](NC(=O)OC(C)(C)C)c4ccccc4)C[C@@](O)([C@@H](OC(=O)c4ccccc4)[C@H]21)C3(C)C [Docetaxel] + COc1cccc2cc(-c3nc([C@H]4CC[C@H](C(=O)O)CC4)n4ncnc(N)c34)[nH]c12 [OSI-027] (partner 0.5 µM): 0.235
4) CC(=O)O[C@@]12CO[C@@H]1C[C@H](O)[C@@]1(C)C(=O)[C@H](O)C3=C(C)[C@@H](OC(=O)[C@H](O)[C@@H](NC(=O)OC(C)(C)C)c4ccccc4)C[C@@](O)([C@@H](OC(=O)c4ccccc4)[C@H]21)C3(C)C [Docetaxel] + CC(C)C[C@H](NC(=O)[C@H](Cc1ccccc1)NC(=O)c1cnccn1)B(O)O [Bortezomib] (partner 0.002 µM): 0.506
5) CC(=O)O[C@@]12CO[C@@H]1C[C@H](O)[C@@]1(C)C(=O)[C@H](O)C3=C(C)[C@@H](OC(=O)[C@H](O)[C@@H](NC(=O)OC(C)(C)C)c4ccccc4)C[C@@](O)([C@@H](OC(=O)c4ccccc4)[C@H]21)C3(C)C [Docetaxel] + Nc1ncn([C@H]2C[C@H](O)[C@@H](CO)O2)c(=O)n1 [Decitabine] (partner 2 µM): 0.308
6) CC(=O)O[C@@]12CO[C@@H]1C[C@H](O)[C@@]1(C)C(=O)[C@H](O)C3=C(C)[C@@H](OC(=O)[C@H](O)[C@@H](NC(=O)OC(C)(C)C)c4ccccc4)C[C@@](O)([C@@H](OC(=O)c4ccccc4)[C@H]21)C3(C)C [Docetaxel] + C[C@]1(O)C[C@@H](c2nc(-c3ccc4ccc(-c5ccccc5)nc4c3)c3c(N)nccn32)C1 [Linsitinib] (partner 1 µM): 0.954

* * *

Tested on: A549
Assay: relative viability (nuclei count vs DMSO), 5 days (fraction); higher = more cells survive
Conditions: first compound 0.5 µM
Listed here: items and their measured relative viability.
Recorded Metric: relative viability

1) COc1cc2nccc(Oc3ccc(NC(=O)Nc4cc(C)on4)c(Cl)c3)c2cc1OC [Tivozanib] + CS(=O)(=O)N1CCN(Cc2cc3nc(-c4cccc5[nH]ncc45)nc(N4CCOCC4)c3s2)CC1 [Pictilisib] (partner 1 µM): 0.571
2) COc1cc2nccc(Oc3ccc(NC(=O)Nc4cc(C)on4)c(Cl)c3)c2cc1OC [Tivozanib] + Cc1nc(NC(=O)N2CCC[C@H]2C(N)=O)sc1-c1ccnc(C(C)(C)C(F)(F)F)c1 [Alpelisib] (partner 2 µM): 0.774
3) Nc1ccn([C@@H]2O[C@H](CO)[C@@H](O)[C@@H]2O)c(=O)n1 [Cytarabine] + CS(=O)(=O)CCNCc1ccc(-c2ccc3ncnc(Nc4ccc(OCc5cccc(F)c5)c(Cl)c4)c3c2)o1 [Lapatinib] (partner 2 µM): 0.0593
4) Nc1ccn([C@@H]2O[C@H](CO)[C@@H](O)[C@@H]2O)c(=O)n1 [Cytarabine] + COc1cc2c(Oc3ccc(NC(=O)C4(C(=O)Nc5ccc(F)cc5)CC4)cc3F)ccnc2cc1OCCCN1CCOCC1 [Foretinib] (partner 0.25 µM): 0.0358

* * *

Test system: LXF-289
Experiment: relative viability (nuclei count vs DMSO), 5 days (fraction); higher = more cells survive
Details: first compound 0.253 µM
// values below are reported relative viability
Recorded Metric: relative viability

1) O=c1[nH]c2ccccc2n1C1CCN(CCCC(c2ccc(F)cc2)c2ccc(F)cc2)CC1 [Pimozide] + CC(=O)Nc1cccc(-n2c(=O)n(C3CC3)c(=O)c3c(Nc4ccc(I)cc4F)n(C)c(=O)c(C)c32)c1 [Trametinib] (partner 0.02 µM): 0.67
2) Cc1cnc(-c2cnc(NCCNc3ccc(C#N)cn3)nc2-c2ccc(Cl)cc2Cl)[nH]1 + Cc1nc(Nc2ncc(C(=O)Nc3c(C)cccc3Cl)s2)cc(N2CCN(CCO)CC2)n1 [Dasatinib] (partner 0.075 µM): 0.204
3) O=c1[nH]c2ccccc2n1C1CCN(CCCC(c2ccc(F)cc2)c2ccc(F)cc2)CC1 [Pimozide] + CC1(C)CCC(c2ccc(Cl)cc2)=C(CN2CCN(c3ccc(C(=O)NS(=O)(=O)c4ccc(N[C@H](CCN5CCOCC5)CSc5ccccc5)c(S(=O)(=O)C(F)(F)F)c4)cc3)CC2)C1 [Navitoclax] (partner 0.5 µM): 0.93
4) O=c1[nH]c2ccccc2n1C1CCN(CCCC(c2ccc(F)cc2)c2ccc(F)cc2)CC1 [Pimozide] + NC(=O)Nc1cc(-c2cccc(F)c2)sc1C(=O)N[C@H]1CCCNC1 [AZD7762] (partner 0.2 µM): 1.1
5) Cc1cnc(-c2cnc(NCCNc3ccc(C#N)cn3)nc2-c2ccc(Cl)cc2Cl)[nH]1 + CC(=O)c1c(C)c2cnc(Nc3ccc(N4CCNCC4)cn3)nc2n(C2CCCC2)c1=O [Palbociclib] (partner 0.5 µM): 0.565
6) O=c1[nH]c2ccccc2n1C1CCN(CCCC(c2ccc(F)cc2)c2ccc(F)cc2)CC1 [Pimozide] + Nc1ncn([C@H]2C[C@H](O)[C@@H](CO)O2)c(=O)n1 [Decitabine] (partner 2 µM): 0.4
7) Cc1cnc(-c2cnc(NCCNc3ccc(C#N)cn3)nc2-c2ccc(Cl)cc2Cl)[nH]1 + Nc1nc2[nH]cc(CCc3ccc(C(=O)N[C@@H](CCC(=O)O)C(=O)O)cc3)c2c(=O)[nH]1 [Pemetrexed] (partner 0.2 µM): 0.818
8) O=c1[nH]c2ccccc2n1C1CCN(CCCC(c2ccc(F)cc2)c2ccc(F)cc2)CC1 [Pimozide] + CS(=O)(=O)CCNCc1ccc(-c2ccc3ncnc(Nc4ccc(OCc5cccc(F)c5)c(Cl)c4)c3c2)o1 [Lapatinib] (partner 2 µM): 0.937
9) O=c1[nH]c2ccccc2n1C1CCN(CCCC(c2ccc(F)cc2)c2ccc(F)cc2)CC1 [Pimozide] + O=C(c1cc(Cc2n[nH]c(=O)c3ccccc23)ccc1F)N1CCN(C(=O)C2CC2)CC1 [Olaparib] (partner 8 µM): 1.04

Values were extracted from the supplement of paper PMC10307832.
